- System: M14 melanoma
- PROCEDURE TEXT: NCI tumour cell line growth inhibition, 48 h
Provide the recorded TGI for the entries that follow.

INSERT INTO measurements (molecule, result) VALUES
  ('CC1(C)CC(=O)C2=C(C1)N(c1ccccc1)C1(O)C=CC(=O)C3=C(O)c4ccccc4C(=O)C321 (stereo not drawn)', '> 100 µM');

I would be grateful if you could provide TGI for each of the following entries.
1. Cn1c(=O)c2[nH]cnc2n(CC(=O)O)c1=O
2. CCOC(=O)CC(=Nc1cc(C)on1)N(CC)CC

1. > 100 µM
2. > 100 µM

---

- Test system: NCI-H23 lung
- PROCEDURE TEXT: NCI tumour cell line growth inhibition, 48 h
MEASURED PARAMETER: TGI

Answered cases to consult:
INSERT INTO results (compound, measured_parameter, result) VALUES
  ('N/C(=N\N=C/c1cc(Cl)cc(Cl)c1O)NO', 'TGI', '19.8 µM'),
  ('C/C=C/COc1cc(NC(=S)c2ccoc2C)ccc1OC', 'TGI', '> 100 µM'),
  ('Cc1ccc(C(=O)NC(C)C)cc1N=NN(C)C', 'TGI', '> 100 µM'),
  ('COc1ccc(-c2c(C(C)=O)c(-c3ccccc3)n(C3OC(COC(C)=O)C(OC(C)=O)C(OC(C)=O)C3OC(C)=O)c(=S)c2C#N)cc1O (stereo unspecified)', 'TGI', '> 100 µM'),
  ('CC1CCC(C#N)(NOC2=NCCN2)CC1 (stereo unspecified)', 'TGI', '> 100 µM');

Kindly state the measured TGI obtained for `O=C(Cc1nc2ccccc2s1)C(=O)Nc1ccc(Cl)cc1Cl` with NCI-H23 lung.
> 100 µM

---

- Test system: RXF 393 renal
- PROCEDURE TEXT: NCI tumour cell line growth inhibition, 48 h
MEASURED PARAMETER: TGI

Answered cases to consult:
INSERT INTO assay_data (entry_smiles, measured_parameter, result) VALUES
  ('Cc1cc(C)c(N)c(C)c1N', 'TGI', '> 100 µM'),
  ('CC(C)(CO)NC(=O)c1cccc(C(=O)NC(C)(C)CO)c1Br', 'TGI', '> 100 µM');

Tell me the measured TGI of `CCOC(=O)c1ccc2c(=O)n3c(C(=O)OCC)ccc3c(=O)n12` , please.
> 100 µM

---

Provide the recorded TGI for the entries that follow.
- Tested on: SF-295 CNS
- PROCEDURE TEXT: NCI tumour cell line growth inhibition, 48 h

INSERT INTO results (compound, measured_parameter, result) VALUES
  ('CCOC(=O)C1CCn2c(nc3c(=O)n(C)c(=O)n(C)c32)S1 (centres undefined)', 'TGI', '> 100 µM'),
  ('O=C(Cc1nc2ccccc2s1)C(=O)Nc1ccc(Cl)cc1Cl', 'TGI', '> 100 µM'),
  ('O=C(O)C1=C(Cl)c2ccccc2S1(=O)=O', 'TGI', '> 100 µM'),
  ('CCC(c1nc2ccccc2c(=O)n1NC(=O)C(C)(C)C)C1(O)CCCCC1 (centres undefined)', 'TGI', '> 100 µM'),
  ('CN(C)S(=O)(=O)c1cccc(-c2nc3sc4c(c3c(=O)[nH]2)CCCC4)c1', 'TGI', '4.01 µM'),
  ('NC(=O)C12CCC1C1CCCCC12N1CCOCC1 (centres undefined)', 'TGI', '> 100 µM'),
  ('COc1cc(C(c2cc(OC)c(OC)c(OC)c2)N2C(=O)CCC2C(=O)O)cc(OC)c1OC (centres undefined)', 'TGI', '> 100 µM'),
  ('CCCCCC/C=C/CCCCCCCc1cccc(O)c1C(=O)O', 'TGI', '> 100 µM'),
  ('CC1(C)CC(=O)C2=C(C1)N(c1ccccc1)C1(O)C=CC(=O)C3=C(O)c4ccccc4C(=O)C321 (centres undefined)', 'TGI', '> 100 µM'),
  ('CC1(C)N=C(/C(C#N)=[N+](/[O-])C(=O)c2ccccc2)C(C)(C)N1O', 'TGI', '> 100 µM');

I would be grateful if you could provide TGI for each of the following entries.
1. Nc1n[n+]([O-])c2cnccc2[n+]1[O-]
2. CCC(=O)n1c(=O)n(-c2ccc([N+](=O)[O-])cc2)c(=O)n1C(=O)CC

1. > 100 µM
2. > 100 µM

---

- Tested on: NCI-H226 lung
- PROCEDURE TEXT: NCI tumour cell line growth inhibition, 48 h
MEASURED PARAMETER: TGI

Answered cases to consult:
INSERT INTO measurements (molecule, result) VALUES
  ('CCc1ccccc1NC(=O)C1=C(C)NC(C)=C(C(=O)Nc2ccccc2CC)C1c1ccc(NC(C)=O)cc1', '> 100 µM'),
  ('OC1NC2CC3NC(O)C(O)NC3CC2NC1O (stereo not drawn)', '> 100 µM');

Tell me the measured TGI of `N=C(N)Cn1cnc2ccccc21` , please.
> 100 µM

---

- System: SK-MEL-28 melanoma
- PROCEDURE TEXT: NCI tumour cell line growth inhibition, 48 h
Provide the recorded GI50 for the entries that follow.

Answered cases to consult:
INSERT INTO measurements (molecule, result) VALUES
  ('O=C1C(Nc2cccc(O)c2)=C(Sc2ccc(Cl)cc2)C(=O)N1Cc1ccccc1', '11 µM'),
  ('CC1CCC(C#N)(NOC2=NCCN2)CC1 (stereo not drawn)', '> 100 µM');

Could you now consider this next molecule?
Kindly state the measured GI50 obtained for `COc1cc2c(cc1-c1c(C)noc1C)ncc1[nH]c(=O)n([C@H](C)c3ccccn3)c12` with SK-MEL-28 melanoma.
0.695 µM

---

- Tested on: HCC-2998 colon
- PROCEDURE TEXT: NCI tumour cell line growth inhibition, 48 h
MEASURED PARAMETER: GI50

Answered cases to consult:
INSERT INTO results (entry_smiles, result) VALUES
  ('CCN1CCN(c2nc(C)cc(N(CCCNc3ccnc4cc(Cl)ccc34)Cc3ccco3)n2)CC1', '2050 nM'),
  ('OCCCCC#Cc1ccccc1C#Cc1cccs1', '18300 nM');

Could you now consider this next molecule?
Kindly state the measured GI50 obtained for `CCCCc1oc2ccccc2c1C(=O)c1cc(I)c(OCCN(CC)CC)c(I)c1` with HCC-2998 colon.
1690 nM

---

Provide the recorded TGI for the entries that follow.
- Tested on: COLO 205 colon
- PROCEDURE TEXT: NCI tumour cell line growth inhibition, 48 h

Answered cases to consult:
INSERT INTO assay_data (compound, measured_parameter, result) VALUES
  ('Nc1ccc(S(=O)(=O)c2ccc(N=[N+]([O-])c3ccc(S(=O)(=O)c4ccc(N)cc4)cc3)cc2)cc1', 'TGI', '> 100 µM'),
  ('CC(C)(CO)NC(=O)c1cccc(C(=O)NC(C)(C)CO)c1Br', 'TGI', '> 100 µM'),
  ('Cc1cc(C)c(N)c(C)c1N', 'TGI', '> 100 µM');

I would be grateful if you could provide TGI for each of the following entries.
1. C/C=C/COc1cc(NC(=S)c2ccoc2C)ccc1OC
2. COc1cc(OC)c(NC2=NCCO2)cc1Cl
3. O=C(NN1C(=O)C(Cl)C1c1ccc([N+](=O)[O-])cc1)c1ccccc1O (stereo not drawn)

1: > 100 µM; 2: 38.2 µM; 3: > 100 µM

I would be grateful if you could provide TGI for each of the following entries.
1. CC(C)=CCC[C@@H](C)C1=C(O)C(Nc2ccccc2F)=C(C)C(=O)C1=O
2. Cc1cc(NS(=O)(=O)c2ccc(NC(=O)c3cccc4c(NNc5ccc(S(N)(=O)=O)cc5)c5ccccc5nc34)cc2)no1
3. O=C(O)C1Cc2ccccc2OC1=O (stereo not drawn)
4. CCCCCCCCCCCCCCCCCCOCC1(COP(=O)([O-])OCC[N+](C)(C)C)CCCO1 (stereo not drawn)
5. O=C1O[C@H](COC(=O)c2ccccc2)[C@@H](OC(=O)c2ccccc2)C=C1OC(=O)c1ccccc1
6. O=C(O)c1ccc(/C=N\N(CCO)C2=NCCN2)cc1

["> 68.9 µM", "> 100 µM", "> 100 µM", "3.63 µM", "38.3 µM", "> 100 µM"]

I would be grateful if you could provide TGI for each of the following entries.
1. COc1ccc2c(c1)Cc1c-2[nH]c2cc3c(cc2c1=O)OCO3
2. COC(=O)C(C(=O)C(=O)Nc1ccc(C)cc1C)c1nc2ccc([N+](=O)[O-])cc2[nH]c1=O (stereo not drawn)

25.5 µM
> 100 µM

I would be grateful if you could provide TGI for each of the following entries.
1. C=C(C)C(=O)N1c2ccc(OC)cc2CC1C(=O)OCC (stereo not drawn)
2. COc1ccc(Cn2cc3c(c2-c2ccccc2)CCc2cncnc2-3)cc1
3. CCN1CCN(c2cc(C)nc(NCc3cc(Nc4ccnc5cc(Cl)ccc45)ccc3F)n2)CC1
4. CC[S+](C)c1ccc(-c2c3nc(c(-c4ccc([S+](C)CC)cc4)c4ccc([nH]4)c(-c4ccc([S+](C)CC)cc4)c4nc(c(-c5ccc([S+](C)CC)cc5)c5ccc2[nH]5)C=C4)C=C3)cc1 (stereo not drawn)
5. CN(c1ccccc1Cl)S(=O)(=O)c1ccccc1
6. CS(=O)(=O)OC1CCN(C2(c3cccc(O)c3)CCCCC2)CC1

1. > 100 µM
2. 17.2 µM
3. 2.81 µM
4. > 100 µM
5. > 100 µM
6. > 100 µM

I would be grateful if you could provide TGI for each of the following entries.
1. O=C(O)C1(CC(CCCN2CCCCC2)c2ccccc2)CCCC1 (stereo not drawn)
2. CC1CCC(C#N)(NOC2=NCCN2)CC1 (stereo not drawn)
3. O=C(OCc1c(-c2ccccc2)nn(-c2ccccc2)c1COC(=O)Oc1ccccc1)Oc1ccccc1
4. COc1cc(C(=C2SCCS2)c2nccc3cc(OC)c(OC)cc23)c([N+](=O)[O-])cc1OC

1: > 100 µM; 2: > 100 µM; 3: > 100 µM; 4: > 100 µM

I would be grateful if you could provide TGI for each of the following entries.
1. C[n+]1ccc2[nH]c3ccccc3c2c1
2. CC(=O)[CH-]C(=O)c1ccccc1.CC(=O)[CH-]C(=O)c1ccccc1.CC[O-].O=C1C=C([O-])C(=O)c2ccccc21.[Ti+4]
3. COC(=O)C[C@](O)(CCC(C)(C)O)C(=O)O[C@@H]1C(OC)=C[C@]23CCCN2CCc2cc4c(cc2[C@H]13)OCO4
4. Oc1oc(-c2ccccc2)nc1/C=C1/C=NN=N1

["> 100 µM", "> 100 µM", "0.255 µM", "> 100 µM"]
